- procedure details: qHTS assay to test for compound auto fluorescence at 460 nm (blue) in HepG2 cell free culture (AID 720685); also: % is scaled to controls: 0 for no effect and ±100 for the full control effect
- measurement parameters: Cell-free culture medium, blue autofluorescence 405/460 nm; series mostly up to 46 µM
The source made the active and inactive calls. Calls follow the shape of the dose curve; as a rule, active = well fitted curve in the direction sought with a large enough effect in the repeat runs; inconclusive = weak or mixed curves; inactive = flat fitted curve, though single readings scatter.
observed property: fluorescence, % of fluorescent control

Reference set (5 entries):
In [3]: df
Out[3]:
                                   molecule  observed_result
0  O=c1[nH]c(=O)n([C@H]2C[C@H](O)[C@@H](CO)O2)cc1I         inactive
1                         O=C1CCCN1C1CCCCC1         inactive
2                       CCCCCCCCS(=O)(=O)Cl         inactive
3                               COCCCOCCCOC         inactive
4                  O=[N+]([O-])c1ccc(F)cc1F         inactive

Below are some molecules; for each one, tell me its fluorescence, % of fluorescent control.
1. Cc1[nH]c(=O)c(C#N)cc1-c1ccc2nccn2c1
2. Cc1cccc(C)c1NC(=O)C(C)N (centres undefined)
3. CC(C)(O)C#CC(C)(C)O
4. CO[C@]12C[C@@H](COC(=O)c3cncc(Br)c3)CN(C)[C@@H]1Cc1cn(C)c3cccc2c13

1: inactive; 2: inactive; 3: inactive; 4: inactive

====

- tgt: Androgen receptor (Homo sapiens) (UniProt P10275)
- Sequence (P10275 whole entry, looked up): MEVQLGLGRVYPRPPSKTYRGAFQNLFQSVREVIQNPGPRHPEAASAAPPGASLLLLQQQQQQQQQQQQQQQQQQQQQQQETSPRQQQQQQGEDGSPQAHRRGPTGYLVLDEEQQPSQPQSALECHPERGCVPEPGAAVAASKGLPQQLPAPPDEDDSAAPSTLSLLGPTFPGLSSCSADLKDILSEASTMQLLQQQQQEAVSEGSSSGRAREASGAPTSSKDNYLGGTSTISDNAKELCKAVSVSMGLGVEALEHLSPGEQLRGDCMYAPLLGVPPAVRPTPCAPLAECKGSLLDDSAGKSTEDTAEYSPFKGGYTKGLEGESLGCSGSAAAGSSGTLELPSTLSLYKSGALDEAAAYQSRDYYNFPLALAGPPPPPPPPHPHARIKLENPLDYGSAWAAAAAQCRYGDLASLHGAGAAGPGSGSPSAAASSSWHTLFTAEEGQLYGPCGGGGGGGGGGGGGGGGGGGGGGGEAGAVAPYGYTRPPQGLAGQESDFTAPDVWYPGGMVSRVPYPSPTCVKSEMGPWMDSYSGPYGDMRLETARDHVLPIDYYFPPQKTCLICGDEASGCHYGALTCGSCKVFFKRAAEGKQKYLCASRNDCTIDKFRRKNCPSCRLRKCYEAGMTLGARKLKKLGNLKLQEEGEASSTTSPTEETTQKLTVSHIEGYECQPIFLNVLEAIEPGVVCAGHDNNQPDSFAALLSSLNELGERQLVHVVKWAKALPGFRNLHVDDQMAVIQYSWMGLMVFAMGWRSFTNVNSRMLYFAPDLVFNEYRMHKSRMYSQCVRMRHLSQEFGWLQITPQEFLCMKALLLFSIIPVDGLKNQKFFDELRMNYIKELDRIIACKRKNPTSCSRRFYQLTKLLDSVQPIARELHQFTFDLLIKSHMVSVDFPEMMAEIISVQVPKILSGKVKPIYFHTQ
- procedure details: qHTS assay to identify small molecule antagonists of the androgen receptor (AR) signaling pathway (AID 743035); also: % is scaled to controls: 0 for no effect and ±100 for the full control effect
- measurement parameters: HEK293 AR-UAS-bla, R1881-stimulated, beta-lactamase FRET, 16 h; series mostly up to 58.5 µM
- From the text: National Center for Advancing Translational Sciences [NCATS] NIH Chemical Genomics Center [NCGC] U.S. Environmental Protection Agency [EPA] National Institutes of Environmental Health Sciences [NIEHS] National Toxicology Program [NTP] U.S. Food and Drug Administration [FDA] Androgen receptor (AR), a nuclear hormone receptor, plays a critical role in AR-dependent prostate cancer and other androgen related diseases. […]
Results filed as inconclusive are left out. Active and inactive are the calls of the source. Calls follow the shape of the dose curve; as a rule, active = well fitted inhibition curve with a large enough effect in the signal ratio in the repeat runs (not every such curve was filed as active); inconclusive = weak or mixed curves, or effect the other way; inactive = no such curve, though single readings can be large or run the other way; the % refers to the signal ratio.
observed property: outcome

In [3]: df
Out[3]:
                                   compound  observed_result
0  FC1(F)C(F)(F)C(F)(F)C2(F)C(F)(F)C(F)(F)C(F)(F)C(F)(F)C2(F)C1(F)F (stereo not drawn)         inactive
1              CCOc1ccc(C(=O)OCCN(CC)CC)cc1         inactive
2  CCn1ccnc1CC1COc2ccccc2O1 (stereo not drawn)         inactive

====

- procedure details: qHTS RealTime-Glo MT Cell Viability Assay in HepG2 cells - 16 hour (AID 1224885); also: % is scaled to controls: 0 for no effect and ±100 for the full control effect; nearly all actives have a fitted effect of over 50% in size
- measurement parameters: RealTime-Glo luminescence; series mostly up to 76.8 µM
Results filed as inconclusive are left out. The source made the active and inactive calls. Calls follow the shape of the dose curve; as a rule, active = well fitted cell-killing curve with a large enough effect in the repeat runs; inconclusive = weak or mixed curves; inactive = flat fitted curve, though single readings scatter.
observed property: activity change, negative = cytotoxic

Reference set (4 entries):
                                   compound                 observed_result
0                             CC(C)CNCC(C)C                        inactive
1  CCn1ccnc1CC1COc2ccccc2O1 (centres undefined)                        inactive
2                    CC(=O)CC(C)(C)C1CCCCC1                        inactive
3  O=C(O)CN(CCOCCOCCN(CC(=O)O)CC(=O)O)CC(=O)O  0.683% [at 0.29 µM] (inactive)

Below are some compounds; for each one, tell me its activity change, negative = cytotoxic.
1. COCCc1ccc(OCC(O)CNC(C)C)cc1 (centres undefined)
2. OCCOc1ccc(OCCO)cc1
3. Cc1nc2c([nH]1)c(=O)n(C)c(=O)n2Cc1ccco1
4. Cn1cc(S(C)=O)c(=O)c2ccc(F)cc21 (centres undefined)
5. CC/C=C\CC/C=C/CO
6. Nc1ccccc1S(=O)(=O)O
7. CC[N+](C)(C)c1cccc(O)c1
8. CCOC(=O)c1c(C)n(C)c2ccc(O)cc12

["inactive", "inactive", "inactive", "inactive", "inactive", "inactive", "inactive", "inactive"]

Below are some compounds; for each one, tell me its activity change, negative = cytotoxic.
1. CO/N=C(/C(=O)N[C@@H]1C(=O)N2C(C(=O)OCOC(=O)C(C)(C)C)=C(C)CS[C@H]12)c1csc(N)n1
2. CCN(CC)CCOCCOC(=O)C1(c2ccccc2)CCCC1

1. inactive
2. inactive

====

- procedure details: qHTS assay for small molecules that induce genotoxicity in human embryonic kidney cells expressing luciferase-tagged ATAD5 (AID 651632); also: % is scaled to controls: 0 for no effect and ±100 for the full control effect; nearly all actives have a fitted effect of over 15% in size
- measurement parameters: HEK293T ATAD5-luciferase induction, 16 h; series mostly up to 83.3 µM
Results filed as inconclusive are left out. The source made the active and inactive calls. The call rests on the fitted dose curve; in most records, active means well fitted activation curve with a large enough effect in the repeat runs; inconclusive means weak or mixed curves; inactive means no such curve, though single readings can be large or run the other way.
observed property: activation

In [3]: df
Out[3]:
                                   molecule  observed_result
0                   CC/C=C\CC/C=C/C(OCC)OCC         inactive
1  C[N+](C)(C)CC(O)CC(=O)[O-] (stereo not given)         inactive
2                         O=C(O)CCCc1ccccc1         inactive
3   CN(C(=O)c1c(O)c2ccccc2n(C)c1=O)c1ccccc1         inactive
4  CCN1CCC[C@H]1CNC(=O)c1cc(S(N)(=O)=O)ccc1OC         inactive
5      OC1CCCCC1c1ccccc1 (stereo not given)         inactive
6  CC(C[N+](C)(C)C)OC(N)=O (stereo not given)         inactive
7            CCOC(=O)c1c(C)n(C)c2ccc(O)cc12         inactive
8                           CCCCNC(=O)NCCCC         inactive
9      c1cnc(N2CCN(Cc3ccc4c(c3)OCO4)CC2)nc1         inactive

Below are some molecules; for each one, tell me its activation.
1. Cn1cc(S(C)=O)c(=O)c2ccc(F)cc21 (stereo not given)
2. CCCCC(CC)COC(=O)c1ccccc1O (stereo not given)
3. CCOC(=O)CCC(C)=O
4. C/C=C(\C)C#N
5. N=C(N)c1ccccc1

inactive
inactive
inactive
inactive
inactive

====

- procedure details: A CellTox Green Cytotoxicity Assay to monitor cytotoxicity in HepG2 cells - 16 hour (AID 1224876); also: % is scaled to controls: 0 for no effect and ±100 for the full control effect; nearly all actives have a fitted effect of over 45% in size
- measurement parameters: CellTox Green fluorescence; series mostly up to 76.8 µM
Records with an inconclusive call do not appear. Calls of active or inactive are those of the source. The call rests on the fitted dose curve; in most records, active means well fitted activation curve with a large enough effect in the repeat runs; inconclusive means weak or mixed curves; inactive means flat fitted curve, though single readings scatter.
observed property: cytotoxicity increase

In [3]: df
Out[3]:
                                   molecule      observed_property                 observed_result
0                         CCc1ccc(O)c(OC)c1  cytotoxicity increase                        inactive
1                           CCCCOCCOCCOCCCC  cytotoxicity increase                        inactive
2                       Nc1ccccc1S(=O)(=O)O  cytotoxicity increase                        inactive
3  CCn1ccnc1CC1COc2ccccc2O1 (stereo not given)  cytotoxicity increase                        inactive
4                    CC(C)(C)c1ccc(O)c(O)c1  cytotoxicity increase                        inactive
5              C[C@](N)(Cc1ccc(O)cc1)C(=O)O  cytotoxicity increase  -1.17% [at 6.97 µM] (inactive)
6                         O=C1CCCN1C1CCCCC1  cytotoxicity increase                        inactive
7                           CC(=O)c1ccccc1O  cytotoxicity increase                        inactive
8                     CC(C)(O)C(=O)c1ccccc1  cytotoxicity increase                        inactive
9                       c1ccc(CC2=NCCN2)cc1  cytotoxicity increase                        inactive

Below are some molecules; for each one, tell me its cytotoxicity increase.
1. CCn1nc(C(=O)O)c(=O)c2cc3c(cc21)OCO3
2. COCCCOCCCOC

inactive
inactive

Below are some molecules; for each one, tell me its cytotoxicity increase.
1. CCN(CC)CCOCCOC(=O)C1(c2ccccc2)CCCC1
2. OC1CCCCC1c1ccccc1 (stereo not given)
3. CC(C)c1cc2c(cc1S(=O)(=O)O)[C@@]1(C)CCC[C@@](C)(C(=O)O)[C@@H]1CC2

1. inactive
2. inactive
3. inactive

All figures here come from PubChem BioAssay (Tox21).
